# credit: patent US20230240966

Assign relative activity (initial increase in OD405) to each entry below.
target: T1, Suc-AAPF-pNA
T1 chain: AAPF
assay.conditions: scale: relative to the substrate with the highest activity
One number for each entry.

Below, each entry is followed by its recorded relative activity (initial increase in OD405) result.
Thermostable alkaline protease BH0855 from Bacillus halodurans (protein) QTVPWGISFINTQQAHNRGIFGNGARVAVLDTGIASHPDLRIAGGASFISSEPSYHDNNGHGTHVAGTIAALNNSIGVLGVAPSADLYAVKVLDRNGSGSLASVAQGIEWAINNNMHIINMSLGSTSGSSTLELAVNRANNAGILLVGAAGNTGRQGVNYPARYSGVMAVAAVDQNGQRASFSTYGPEIEISAPGVNVNSTYTGNRYVSLSGTSMATPHVAGVAALVKSRYPSYTNNQIRQRINQTATYLGSPSLYGNGLVHAGRATQ: 0.59
Serine protease bppB from Bacillus pumilus JA16 (protein) VVIGDDGRTKVTNTRVAPYNSIAYITFGGSSCTGTLIAPNKILTNGHCVYNTATRSYSAKGSVYPGMNDSTAVNGSANMTEFYVPSGYINTGASQYDFAVIKTDTNIGNTVGYRSIRQVTNLTGTTIKISGYPGDKMRSTGKVSQWEMSGPVTREDTNLAYYTIDTFSGNSGSAMLDQNQQIVGVHNAGYSNGTINGGPKATAAFVEFINYAKAQ: 0
Serine protease from Nocardiopsis sp NRRL 18262 (protein) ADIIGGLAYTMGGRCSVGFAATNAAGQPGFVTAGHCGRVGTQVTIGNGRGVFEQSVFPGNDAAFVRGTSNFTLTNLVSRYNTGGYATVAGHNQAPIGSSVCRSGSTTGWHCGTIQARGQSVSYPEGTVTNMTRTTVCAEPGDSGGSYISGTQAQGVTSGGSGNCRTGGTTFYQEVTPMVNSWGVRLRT: 1

Then there is this protein:
**Q:** Give the measured relative activity (initial increase in OD405) of Lysyl endopeptidase from Achromobacter lyticus (protein) GVSGSCNIDVVCPEGDGRRDIIRAVGAYSKSGTLACTGSLVNNTANDRKMYFLTAHHCGMGTASTAASIVVYWNYQNSTCRAPNTPASGANGDGSMSQTQSGSTVKATYATSDFTLLELNNAANPAFNLFWAGWDRRDQNYPGAIAIHHPNVAEKRISNSTSPTSFVAWGGGAGTTHLNVQWQPSGGVTEPGSSGSPIYSPEKRVLGQLHGGPSSCSATGTNRSDQYGRVFTSWTGGGAAASRLSDWLDPASTGAQFIDGLDSGGGTP .
**A:** 0.0041
